test: RP, Waters ACQUITY UPLC BEH C8, 100 × 2.1 mm, 1.7 µm, 50 °C, 0.35 mL/min, estimated dead time 0.63 min; A: water + 0.1% formic acid; B: acetonitrile + 0.1% formic acid; gradient (min/%B) 0/5 1/5 24/100 28/100; conditions: stereoisomer not certain
property_measured: LC retention time (min)
Answers are plain numbers, in min.

Worked examples follow.
# molecule, LC retention time [min]
records = [
    ("Cc1cnc2ccccc2c1", 2.47),
    ("Nc1nc2ccc(C(=O)c3ccccc3)cc2[nH]1", 5.28),
    ("Cc1cc2nc3c(=O)[nH]c(=O)nc-3n(CC(O)C(O)C(O)CO)c2cc1C (centres undefined)", 3.85),
]

Below is a list of molecules. For each, state its recorded LC retention time.
1. CCCCCC=CCC=CCC=CCCCCCCC(=O)OCC(O)COP(=O)([O-])OCC[N+](C)(C)C (centres undefined)
2. NC(Cc1c[nH]c2ccccc12)C(=O)O (centres undefined)
3. CCC=CCC=CCC=CCC=CCC=CCC=CCCC(=O)O

Completion:
1: 15.9; 2: 2.47; 3: 17.8

For each listed entry, give its LC retention time.
1. CCCCCCC=CCCCC(=O)OC(CC(=O)O)C[N+](C)(C)C (centres undefined)
2. CCCCCCCCC=CCCCCCCCCCCCC(N)=O
3. CCCCCCC=CCCCCCCCC(=O)O
4. CCCCCC=CCC=CCC=CCCCCCCC(=O)OCC(COP(=O)([O-])OCC[N+](C)(C)C)OC(=O)CCCCCCCCCCCCC (centres undefined)
5. NC(=O)CCC(NC(=O)Cc1ccccc1)C(=O)O (centres undefined)
6. NC(Cc1ccc(O)cc1)C(=O)O (centres undefined)
7. CCCCCCCCCCCCCCCCCC(N)=O
8. CCCCCC=CCC=CCCCCCCCC(=O)OCC(O)CO (centres undefined)

Completion:
1. 11.4
2. 18.8
3. 17.4
4. 20.2
5. 3.67
6. 1.03
7. 18.4
8. 17

Here are 5 molecules. What values of LC retention time were reported for them?
1. CCCCCCCCCCCCCCCC(N)=O
2. O=c1[nH]cnc2nc[nH]c12
3. CCCCCCCCCCCCCCCCCCCC(=O)OC(CC(=O)O)C[N+](C)(C)C (centres undefined)
4. O=C(CO)CO
5. C=CC1=C(C)C(C=c2[nH]c(=Cc3[nH]c(C=C4NC(=O)C(C)=C4C=C)c(C)c3CCC(=O)O)c(CCC(=O)O)c2C)=NC1=O

Completion:
16.9
1.02
17.1
1.6
10.7
